# Measured target: Alpha-1A adrenergic receptor (Homo sapiens)
# Sequence (whole entry): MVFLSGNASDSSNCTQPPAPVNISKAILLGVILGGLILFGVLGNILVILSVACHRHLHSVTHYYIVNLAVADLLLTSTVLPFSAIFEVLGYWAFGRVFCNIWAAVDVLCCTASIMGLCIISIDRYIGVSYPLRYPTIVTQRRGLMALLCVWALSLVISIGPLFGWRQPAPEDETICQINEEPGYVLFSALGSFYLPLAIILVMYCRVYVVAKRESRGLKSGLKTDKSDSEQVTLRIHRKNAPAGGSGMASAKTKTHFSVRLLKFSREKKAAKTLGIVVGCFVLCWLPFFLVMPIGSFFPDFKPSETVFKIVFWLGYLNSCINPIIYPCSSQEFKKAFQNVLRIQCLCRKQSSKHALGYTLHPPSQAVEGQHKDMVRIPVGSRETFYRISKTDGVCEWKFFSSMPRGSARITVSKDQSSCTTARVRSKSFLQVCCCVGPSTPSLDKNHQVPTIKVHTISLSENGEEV
# Assay notes: Experimental binding affinity for alpha-1A-adrenergic receptor
In this section we review reported pK1a values for a set of molecules.
// return a plain number; no unit text

Field: example entries. Status: answers known.
Please tell me: pK1a of `COc1ccc(Cl)cc1N1CCN(CCCNc2cc(-c3ccccc3)nn(C)c2=O)CC1` , system Alpha-1A adrenergic receptor (Homo sapiens)?
8.7

Please tell me: pK1a of `COc1ccc(Cl)cc1N1CCN(CCCCNc2c(C(C)=O)c(C)nn(C)c2=O)CC1` , system Alpha-1A adrenergic receptor (Homo sapiens)?
8.52

Please tell me: pK1a of `CC(=O)c1c(-c2ccccc2)nn(C)c(=O)c1NCCN1CCN(c2ccccc2Cl)CC1` , system Alpha-1A adrenergic receptor (Homo sapiens)?
9.52

Please tell me: pK1a of `COc1ccccc1N1CCN(CCNc2cc(C)nn(C)c2=O)CC1` , system Alpha-1A adrenergic receptor (Homo sapiens)?
7.73

Please tell me: pK1a of `COc1ccc(Cl)cc1N1CCN(CCCNc2c(C(C)=O)c(-c3ccccc3)nn(C)c2=O)CC1` , system Alpha-1A adrenergic receptor (Homo sapiens)?
8.64

Please tell me: pK1a of `COc1ccc(Cl)cc1N1CCN(CCNc2c(C(C)=O)c(-c3ccccc3)nn(C)c2=O)CC1` , system Alpha-1A adrenergic receptor (Homo sapiens)?
9.55

As a next step, examine the molecule that follows.
Please tell me: pK1a of `COc1ccc(Cl)cc1N1CCN(CCCNc2c(C(C)=O)c(C)nn(C)c2=O)CC1` , system Alpha-1A adrenergic receptor (Homo sapiens)?
9.29

###

# Measured target: Alpha-1D adrenergic receptor (Homo sapiens) (UniProt P25100)
# Sequence (P25100 whole entry): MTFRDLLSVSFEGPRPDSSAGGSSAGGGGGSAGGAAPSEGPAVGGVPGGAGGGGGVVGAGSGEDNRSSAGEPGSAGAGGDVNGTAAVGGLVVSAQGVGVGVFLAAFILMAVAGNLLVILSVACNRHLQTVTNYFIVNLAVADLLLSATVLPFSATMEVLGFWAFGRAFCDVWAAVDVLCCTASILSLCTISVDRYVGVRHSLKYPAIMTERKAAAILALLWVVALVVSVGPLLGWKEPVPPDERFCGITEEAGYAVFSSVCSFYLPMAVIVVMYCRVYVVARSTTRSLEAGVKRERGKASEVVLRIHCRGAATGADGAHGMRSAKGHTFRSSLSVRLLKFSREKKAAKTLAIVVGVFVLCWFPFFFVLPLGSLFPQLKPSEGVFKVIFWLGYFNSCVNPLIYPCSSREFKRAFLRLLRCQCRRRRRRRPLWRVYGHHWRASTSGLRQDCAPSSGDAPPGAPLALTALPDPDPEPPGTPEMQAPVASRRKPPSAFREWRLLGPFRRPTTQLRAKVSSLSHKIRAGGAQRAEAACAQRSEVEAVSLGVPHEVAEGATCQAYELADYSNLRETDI
# Assay notes: Experimental binding affinity for alpha-1D-adrenergic receptor
Property label: pK1d

Please tell me: pK1d of `COc1ccccc1N1CCN(CCCNc2cc(-c3ccccc3)nn(C)c2=O)CC1` , system Alpha-1D adrenergic receptor (Homo sapiens) (UniProt P25100)?
7.93

***
Please tell me: pK1d of `COc1ccccc1N1CCN(CCCNc2c(C(C)=O)c(-c3ccccc3)nn(C)c2=O)CC1` , system Alpha-1D adrenergic receptor (Homo sapiens) (UniProt P25100)?
8.37

Please tell me: pK1d of `COc1ccccc1N1CCN(c2c(C(C)=O)c(-c3ccccc3)nn(C)c2=O)CC1` , system Alpha-1D adrenergic receptor (Homo sapiens) (UniProt P25100)?
5
